protocol-text: in vitro
recorded-conditions: human, liver microsomes
Is microsomal CLint at 1 h, 10 µM at least 70 µL/min/mg? Then true. If not, false.

[[record]]
compound = "CCOC(=O)N1CC(O)C(=C2c3ccc(Cl)cc3CCc3cccnc32)C(O)C1 (stereo not given)"
label_class = "false"

[[record]]
compound = "CCOC(=O)N1C=C/C(=C2/c3ccc(Cl)cc3CCc3cc(O)cnc32)CC1"
label_class = "false"

[[record]]
compound = "CCOC(=O)N1CCC2(CC1)OC21c2ccc(Cl)cc2CCc2ccc[n+]([O-])c21 (stereo not given)"
label_class = "false"

[[record]]
compound = "CCOC(=O)N1CCC(=C2c3ccc(Cl)cc3CC(F)c3cccnc32)CC1 (stereo not given)"
label_class = "true"

[[record]]
compound = "CCOC(=O)N1CC/C(=C2/c3ccc(Cl)cc3CCc3cccnc32)C(O)C1 (stereo not given)"
label_class = "false"

[[record]]
compound = "CCOC(=O)N1CCC2(CC1)OC21c2ccc(Cl)cc2CCc2cccnc21 (stereo not given)"
label_class = "true"

[[record]]
compound = "CCOC(=O)N1C=C/C(=C2\\c3ccc(Cl)cc3CCc3cc(O)cnc32)CC1"
label_class = "false"

[[record]]
compound = "CCOC(=O)N1CCC(=C2c3ccc(Cl)cc3CCc3ccc[n+]([O-])c32)CC1"
label_class = "false"

[[record]]
compound = "CCOC(=O)N1CCC(=C2c3ccc(Cl)cc3CCc3cc(O)cnc32)CC1"
label_class = "true"

[[record]]
compound = "CCOC(=O)N1CCC(=C2c3ccc(Cl)cc3CC(O)c3cccnc32)CC1 (stereo not given)"
label_class = "true"


###

protocol-text: in vitro
recorded-conditions: dog, MDCK
Description: Apparent permeability in RRCK cells
Label condition met when Papp is at or above 30 ×10⁻⁶ cm/s; anything below gets condition not met.

[[record]]
compound = "OC1Cc2cc(Cl)ccc2C(=C2CCNCC2)c2ncccc21 (stereo not given)"
label_class = "condition met"

[[record]]
compound = "CCOC(=O)N1C=C/C(=C2\\c3ccc(Cl)cc3CC(O)c3cccnc32)CC1 (stereo not given)"
label_class = "condition met"

[[record]]
compound = "CCOC(=O)N1CCC(=C2c3ccc(Cl)cc3CCc3ccc[n+]([O-])c32)CC1"
label_class = "condition not met"

[[record]]
compound = "CCOC(=O)N1CCC2(CC1)OC21c2ccc(Cl)cc2CCc2ccc[n+]([O-])c21 (stereo not given)"
label_class = "condition not met"

[[record]]
compound = "CCOC(=O)N1C(O)CC(=C2c3ccc(Cl)cc3CCc3cccnc32)CC1O (stereo not given)"
label_class = "condition not met"

[[record]]
compound = "CCOC(=O)N1CCC(=C2c3ccc(Cl)cc3C(O)Cc3cccnc32)CC1 (stereo not given)"
label_class = "condition not met"

[[record]]
compound = "CCOC(=O)N1CCC(=C2c3ccc(Cl)cc3C=Cc3cccnc32)CC1"
label_class = "condition met"

[[record]]
compound = "CCOC(=O)N1C=C/C(=C2/c3ccc(Cl)cc3CCc3cccnc32)CC1"
label_class = "condition met"

[[record]]
compound = "CCOC(=O)N1CCC(=C2c3ccc(Cl)cc3CC(F)c3cccnc32)CC1 (stereo not given)"
label_class = "condition not met"

[[record]]
compound = "CCOC(=O)N1CCC(=C2c3ccc(Cl)cc3CC(O)c3cccnc32)CC1 (stereo not given)"
label_class = "condition not met"


###

Catalogue of molecules with associated logD
protocol-text: physchem
recorded-conditions: octanol/water, pH 7.4
Description: Octanol/water partition coefficient, log D of compound at pH 7.4 by shake-flask method
measurement-label: logD

[[record]]
molecule = "CCOC(=O)N1CCC(=C2c3ccc(Cl)cc3CCc3cc(O)cnc32)CC1"
value_observed = 3.1

[[record]]
molecule = "CCOC(=O)N1C=C/C(=C2/c3ccc(Cl)cc3CCc3cccnc32)CC1"
value_observed = 3.6

[[record]]
molecule = "CCOC(=O)N1CCC(=C2c3ccc(Cl)cc3CCc3ccc[n+]([O-])c32)CC1"
value_observed = 2.8

[[record]]
molecule = "CCOC(=O)N1CCC(=C2c3ccc(Cl)cc3CC(O)c3cccnc32)CC1 (configuration not stated)"
value_observed = 3.3

[[record]]
molecule = "CCOC(=O)N1CC(O)C(=C2c3ccc(Cl)cc3CCc3cccnc32)C(O)C1 (configuration not stated)"
value_observed = 2.8

[[record]]
molecule = "CCOC(=O)N1CCC2(CC1)OC21c2ccc(Cl)cc2CCc2cccnc21 (configuration not stated)"
value_observed = 2.9

[[record]]
molecule = "CCOC(=O)N1CC/C(=C2/c3ccc(Cl)cc3CCc3cccnc32)C(O)C1 (configuration not stated)"
value_observed = 3.1

[[record]]
molecule = "Clc1ccc2c(c1)CCc1cccnc1C2=C1CCNCC1"
value_observed = 1.3

[[record]]
molecule = "CCOC(=O)N1CCC(=C2c3ccc(Cl)cc3C(O)Cc3cccnc32)CC1 (configuration not stated)"
value_observed = 3.2

[[record]]
molecule = "CCOC(=O)N1C=C/C(=C2\\c3ccc(Cl)cc3CC(O)c3cccnc32)CC1 (configuration not stated)"
value_observed = 3.4

[[record]]
molecule = "CCOC(=O)N1CCC(=C2c3ccc(Cl)cc3C=Cc3cccnc32)CC1"
value_observed = 2.6

[[record]]
molecule = "CCOC(=O)N1C=C/C(=C2\\c3ccc(Cl)cc3CCc3cccnc32)CC1"
value_observed = 4.3


###

Each item that follows carries a reported hepatocyte CLint at 4 h.
protocol-text: in vitro
recorded-conditions: human, hepatocytes
Description: Intrinsic clearance in human hepatocytes at 0.2 nmol assessed per million cells up to 240 mins in presence of NADPH by LC-MS/MS analysis
measurement-label: hepatocyte CLint at 4 h (µL/min/1e6 cells)

[[record]]
compound = "CCOC(=O)N1C=C/C(=C2/c3ccc(Cl)cc3CCc3cc(O)cnc32)CC1"
measurement_label = "hepatocyte CLint at 4 h"
qualifying_sign = "="
value_observed = 62

[[record]]
compound = "CCOC(=O)N1C=C/C(=C2\\c3ccc(Cl)cc3CCc3cc(O)cnc32)CC1"
measurement_label = "hepatocyte CLint at 4 h"
qualifying_sign = "="
value_observed = 67

[[record]]
compound = "OC1Cc2cccnc2C(=C2CCNCC2)c2ccc(Cl)cc21 (stereo not drawn)"
measurement_label = "hepatocyte CLint at 4 h"
qualifying_sign = "<"
value_observed = 1.75

